Quick reference: MFI_4° C. of the listed items.
tested-on: T1, human CDH6 on tumor cells (OVCAR3 cells, PA-1 cells) (human, UniProt P55285 54-790)
T1 sequence: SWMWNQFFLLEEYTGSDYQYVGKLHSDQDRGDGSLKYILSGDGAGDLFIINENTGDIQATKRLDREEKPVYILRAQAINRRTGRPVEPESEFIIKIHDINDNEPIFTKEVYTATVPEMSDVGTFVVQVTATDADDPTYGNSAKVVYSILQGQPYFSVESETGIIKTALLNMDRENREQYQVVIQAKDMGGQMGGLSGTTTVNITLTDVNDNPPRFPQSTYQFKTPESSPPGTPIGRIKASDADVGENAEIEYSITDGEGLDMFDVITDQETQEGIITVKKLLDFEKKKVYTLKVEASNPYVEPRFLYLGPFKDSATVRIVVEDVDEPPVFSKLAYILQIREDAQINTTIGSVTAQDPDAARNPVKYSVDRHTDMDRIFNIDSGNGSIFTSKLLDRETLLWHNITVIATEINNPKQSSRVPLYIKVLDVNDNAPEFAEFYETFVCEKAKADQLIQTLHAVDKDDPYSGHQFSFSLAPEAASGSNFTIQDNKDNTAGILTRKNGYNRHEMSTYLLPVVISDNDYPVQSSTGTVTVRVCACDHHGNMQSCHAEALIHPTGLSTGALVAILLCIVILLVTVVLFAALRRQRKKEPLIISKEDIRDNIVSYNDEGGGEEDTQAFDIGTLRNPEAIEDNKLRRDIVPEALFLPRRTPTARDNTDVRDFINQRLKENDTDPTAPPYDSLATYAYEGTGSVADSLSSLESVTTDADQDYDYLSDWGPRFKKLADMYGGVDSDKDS
method-summary: FACS, OVCAR3 cells, 4° C. arm of endocytosis assay, antibody diluted to 10 µg/mL
I only need the number, in MFI, no unit after it.

binder: DS-H01L02 (antibody, human IgG1, kappa, V domains shown, Positive control, variable regions from WO2018212136A1; also called positive control anti-human CDH6 antibody) VH: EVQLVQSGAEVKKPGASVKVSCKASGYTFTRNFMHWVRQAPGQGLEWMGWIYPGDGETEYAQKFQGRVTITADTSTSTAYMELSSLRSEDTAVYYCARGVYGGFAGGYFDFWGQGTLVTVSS VL: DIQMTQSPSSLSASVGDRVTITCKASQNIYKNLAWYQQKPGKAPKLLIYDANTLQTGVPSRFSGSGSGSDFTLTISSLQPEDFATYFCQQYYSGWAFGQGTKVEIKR
quantitative-readout: 3830

Name the recorded MFI_4° C. for CHI-CDH6-5 (antibody, human IgG1, kappa, V domains shown, also called CH1-CDH6-5; chimeric antibody of murine CDH6-5) VH: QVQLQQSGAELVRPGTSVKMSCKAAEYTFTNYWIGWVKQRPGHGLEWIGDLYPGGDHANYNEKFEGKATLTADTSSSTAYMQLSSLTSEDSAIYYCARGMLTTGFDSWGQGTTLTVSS VL: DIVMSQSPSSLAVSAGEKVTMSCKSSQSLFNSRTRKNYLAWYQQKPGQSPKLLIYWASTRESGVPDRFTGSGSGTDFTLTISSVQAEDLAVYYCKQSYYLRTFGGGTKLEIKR .
8810

Name the recorded MFI_4° C. for NOV0712 (antibody, human IgG1, kappa, V domains shown, Positive control, variable regions from WO2018212136A1; also called positive control anti-human CDH6 antibody) VH: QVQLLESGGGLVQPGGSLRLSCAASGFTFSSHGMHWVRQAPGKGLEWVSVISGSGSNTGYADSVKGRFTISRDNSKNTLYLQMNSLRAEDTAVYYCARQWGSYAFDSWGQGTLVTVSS VL: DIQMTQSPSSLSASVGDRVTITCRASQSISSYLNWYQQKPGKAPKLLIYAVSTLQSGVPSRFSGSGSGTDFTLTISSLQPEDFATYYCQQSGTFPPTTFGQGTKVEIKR .
6520

Name the recorded MFI_4° C. for CHI-CDH6-6 (antibody, human IgG1, kappa, V domains shown, also called CHI-hCDH6-6; chimeric antibody of murine CDH6-6) VH: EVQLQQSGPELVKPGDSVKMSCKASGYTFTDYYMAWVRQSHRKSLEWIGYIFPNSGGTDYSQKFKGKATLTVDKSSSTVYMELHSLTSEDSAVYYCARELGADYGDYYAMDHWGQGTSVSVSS VL: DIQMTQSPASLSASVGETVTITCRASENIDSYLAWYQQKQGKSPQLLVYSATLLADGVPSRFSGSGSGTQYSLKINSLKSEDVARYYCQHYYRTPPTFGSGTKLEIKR .
9930

Name the recorded MFI_4° C. for CHI-CDH6-7 (antibody, human IgG1, kappa, V domains shown, also called CH1-CDH6-7; chimeric antibody of murine CDH6-7) VH: EVKLVESGGGLVKPGGSLKVSCAASGFTFSDHGMAWVRQAPGKGPEWVAFISNLAYSIYYADTVTGRFTISRENAKNTLYLEMSSLRSEDTAMYYCARVYVKWYFDVWGAGTTVTVSS VL: DIQMTQSPASLSASVGETVTITCRASENIDSYLAWYQQKQGKSPQLLVFAATLLADGVPSRFSGSGSGTQYSLKINSLQSEDVARYYCQHYYSTPLTFGAGTKLELKR .
5580
